- assay-system: glutathione-S-transferase (GST) tagged LXRalpha LBD (ligand binding domain) (Homo sapiens)
- Construct: purchased Invitrogen pv4655
- test: LanthaScreen TR-FRET Liver X Receptor Coactivator Assay, co-activator recruitment to LXRalpha LBD
- Assay type: biochemical
- condition-summary: potency (Inflection Point, IP), co-activator recruitment to LXRalpha LBD, in relation to T0901317; read-out: LXR alpha IP
endpoint-name: EC50 (nM)
Give bare numbers, in nM.

Below: 2 compounds and their reported EC50.
CN(C)C(=O)c1ccc(N2CCC(CC3CN(C(=O)[C@](O)(c4cccc(Cl)c4)C(F)(F)F)C3)CC2)nc1Cl; 525
COc1cc(C)cc([C@@](O)(C(=O)N2CCC(CC3CCN(c4ccc(C(=O)N(C)C)c(Cl)c4)CC3)CC2)C(F)(F)F)c1; 309

Tell me EC50 reported for CNC(=O)c1ccc(N2CCC(CC3CCN(C(=O)C(O)(c4cccc(Cl)c4)C(F)(F)F)CC3)CC2)cc1Cl (stereo not drawn) 340

###

- assay-system: glutathione-S-transferase (GST) tagged LXRalpha LBD (ligand binding domain) (Homo sapiens, UniProt Q13133)
- Construct: purchased Invitrogen pv4655
- Sequence (Q13133 209-447 limits assumed): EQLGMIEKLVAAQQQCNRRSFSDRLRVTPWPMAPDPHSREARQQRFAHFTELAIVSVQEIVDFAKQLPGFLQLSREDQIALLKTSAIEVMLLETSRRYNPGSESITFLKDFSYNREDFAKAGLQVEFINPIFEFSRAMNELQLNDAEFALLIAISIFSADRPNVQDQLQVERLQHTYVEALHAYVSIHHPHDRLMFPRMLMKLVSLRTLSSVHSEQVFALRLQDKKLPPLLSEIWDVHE
- test: LanthaScreen TR-FRET Liver X Receptor Coactivator Assay, co-activator recruitment to LXRalpha LBD
- Type: biochemical
- condition-summary: efficacy at max dose, in relation to reference dual agonist T0901317; read-out: LXR alpha Activity @ max dose (%)
Checkbox rule: Emax lower than 9% = yes (1); Emax not lower than 9% = no (0).

CN(C)C(=O)c1ccc(N2CCC(CC3CCN(C(=O)[C@](O)(c4ccccc4F)C(F)(F)F)CC3)CC2)nc1Cl; no (0)
CN(C)C(=O)c1ccc(N2CCC(OC3CCN(C(=O)C(O)(c4cccc(C(F)(F)F)c4)C(F)(F)F)CC3)CC2)cc1Cl (stereo not drawn); no (0)
CN(C)C(=O)c1ccc(N2CCC(CC3CCN(C(=O)C(O)(c4cc(F)cc(Cl)c4)C(F)(F)F)CC3)CC2)nc1Cl (stereo not drawn); no (0)

Let us examine a further case.
State whether 9% exceeds Emax recorded for Cc1cc(N2CCC(CC3(C)CCN(C(=O)[C@](O)(c4cccc(OC(C)C)c4)C(F)(F)F)CC3)CC2)ccc1C(=O)N(C)C . yes (1)

###

- assay-system: glutathione-S-transferase (GST) tagged LXRbeta LBD (ligand binding domain) (Homo sapiens)
- Construct: purchased Invitrogen pv4658.pps
- Sequence (P55055 222-460 limits assumed): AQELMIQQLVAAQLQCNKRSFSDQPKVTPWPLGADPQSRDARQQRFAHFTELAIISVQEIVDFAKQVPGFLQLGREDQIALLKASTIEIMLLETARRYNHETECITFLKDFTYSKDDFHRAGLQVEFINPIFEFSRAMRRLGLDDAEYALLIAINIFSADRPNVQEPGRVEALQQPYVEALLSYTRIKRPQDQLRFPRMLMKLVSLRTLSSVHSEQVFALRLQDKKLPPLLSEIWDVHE
- test: LanthaScreen TR-FRET Liver X Receptor Coactivator Assay, co-activator recruitment to LXRbeta LBD
- Format: biochemical
- condition-summary: efficacy at max dose, in relation to reference dual agonist T0901317; read-out: LXR beta Activity @ max dose (%)
- Source text: […]
endpoint-name: Emax
Include the unit right after the number.

COc1cc(F)cc([C@](O)(C(=O)N2CCC(CC3CCN(c4ccc(C(=O)N(C)C)c(Cl)n4)CC3)CC2)C(F)(F)F)c1; 114%
CN(C)C(=O)c1ccc(N2CCC(CC3CCN(C(=O)[C@](O)(c4cc(Cl)cc(Cl)c4)C(F)(F)F)CC3)CC2)nc1Cl; 55%
CN(C)C(=O)c1ccc(N2CCC(OC3CCN(C(=O)N4CC(O)(C(F)(F)F)C4)CC3)CC2)cc1Cl; 18%
CNC(=O)c1ccc(N2CCC(OC3CCN(C(=O)C(O)(c4cccc(C)c4)C(F)(F)F)CC3)CC2)cc1Cl (stereo not drawn); 102%
CN(C)C(=O)c1ccc(N2CCC(CC3CCN(C(=O)[C@](O)(c4cccc(OC(F)F)c4)C(F)(F)F)CC3)CC2)nc1Cl; 60%

Field: Emax. Fill in for each record below.
1. Cc1cc(N2CCC(CC3CCN(C(=O)[C@](O)(c4cccc(OC(C)C)c4)C(F)(F)F)CC3)CC2)ccc1C(=O)N(C)C
2. CNC(=O)c1ccc(N2CCC(CC3CCN(C(=O)[C@](O)(c4cccc(C(F)(F)F)c4)C(F)(F)F)CC3)CC2)cc1Cl
3. CN(C)C(=O)c1ccc(N2CCC(CC3CCN(C(=O)OC(C)(C)C)CC3)CC2)cc1Cl
4. CN(C)C(=O)c1ccc(N2CCC(CC3CCN(C(=O)C(O)(c4ccnc(C(F)(F)F)c4)C(F)(F)F)CC3)CC2)cc1Cl (stereo not drawn)

["52%", "78%", "63%", "34%"]
